system: Hepatotoxicity; test: FDA HLAED, serum glutamic pyruvic transaminase (SGPT) increase; conditions: human
readout.label: SGPT Increase - Number of Reports

Here's what some known entries look like.
>  <compound>
C[C@]12CC[C@H]3[C@@H](CCC4=CC(=O)CC[C@@]43C)[C@@H]1CC[C@@H]2OC(=O)Cc1ccccc1 [TESTOSTERONE PHENYLACETATE]

>  <SGPT Increase - Number of Reports>
< 4

$$$$
>  <compound>
O=c1[nH]cnc2c1ncn2[C@H]1CC[C@@H](CO)O1 [DIDANOSINE]

>  <SGPT Increase - Number of Reports>
>= 4

$$$$
>  <compound>
CC(=O)OCC1=C(C(=O)O)N2C(=O)[C@@H](NC(=O)CSc3ccncc3)[C@H]2SC1 [CEPHAPIRIN]

>  <SGPT Increase - Number of Reports>
< 4

$$$$
>  <compound>
CN(C/C=C/C#CC(C)(C)C)Cc1cccc2ccccc12 [TERBINAFINE]

>  <SGPT Increase - Number of Reports>
>= 4

$$$$
>  <compound>
O=C(O)CCc1nc(-c2ccccc2)c(-c2ccccc2)o1 [OXAPROZIN]

>  <SGPT Increase - Number of Reports>
>= 4

$$$$

Note to self: SGPT Increase - Number of Reports of FC(F)OC(Cl)C(F)(F)F (centres undefined) [ISOFLURANE] with Hepatotoxicity was < 4

Note to self: SGPT Increase - Number of Reports of COc1cc(C(=O)NS(=O)(=O)c2ccccc2C)ccc1Cc1cn(C)c2ccc(NC(=O)OC3CCCC3)cc12 [ZAFIRLUKAST] with Hepatotoxicity was >= 4

Note to self: SGPT Increase - Number of Reports of CC(C(=O)O)c1ccc(C(=O)c2cccs2)cc1 (centres undefined) [SUPROFEN] with Hepatotoxicity was < 4

Note to self: SGPT Increase - Number of Reports of CN1CCN(C2=Nc3ccccc3Oc3ccc(Cl)cc32)CC1 [LOXAPINE] with Hepatotoxicity was >= 4
